System: 616215-338-R-J1-PDC complex spheroid viability;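 further: spheroids exposed to agents for seven days before viability readout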
Test: Anticancer human tumor 616215-338-R-J1-PDC patient-derived colon adenocarcinoma cell line growth inhibition [RAS]
Conditions: curve of first compound; second compound 0.1 µM
Excerpt: RAS pathway inhibitors in Combinations in Complex Spheroids A high-throughput screen of multi-cell type tumor spheroids was designed to identify active combinations of RAS pathway inhibitors and targeted small molecules. Complex spheroids include a stromal component modeled by human endothelial cells (HUVEC) and fibroblasts modeled by human mesenchymal stem cells (MSCs). […] Compounds. […] If the clinical Cmax for an agent had not been determined, the highest concentration tested was 10 microM. […]
pIC50: −log10 of the molar value.
Entries and their pIC50
measuredParameter: pIC50

Cc1nc(N2CCC3(CC2)COC(C)C3N)c(CO)nc1Sc1ccnc(N)c1Cl (stereo not drawn) + C#Cc1c(F)ccc2cc(O)cc(-c3ncc4c(N5CC6CCC(C5)N6)nc(OCC56CCCN5CC(F)C6)nc4c3F)c12 ... < 5.00
CC(Nc1ccc2c(c1)OCCn1cc(N3C(=O)OCC3C(F)F)nc1-2)C(N)=O (stereo not drawn) + C#Cc1c(F)ccc2cc(O)cc(-c3ncc4c(N5CC6CCC(C5)N6)nc(OCC56CCCN5CC(F)C6)nc4c3F)c12 ... < 5.00
Cc1nc(N2CCC3(CC2)COC(C)C3N)c(CO)nc1Sc1ccnc(N)c1Cl (stereo not drawn) + C=CC(=O)N1CCN(c2nc(OCC3CCCN3C)nc3c(F)c(-c4nc(N)cc(C)c4C(F)(F)F)c(Cl)cc23)C(C)C1 ... < 5.00
